test.protocol: PK study in rats (intravenous and oral)
Format: in vivo, Male Sprague Dawley rats
assay.context: male, Sprague Dawley, rat, plasma, intravenous 2.5 mg/kg, read-out: Observed AUCinf
value.kind: AUC(0-inf) (ng·h/mL)
// note: answer is a bare numeric in ng·h/mL

The reported value for CC(C)(C)[C@H](NC(=O)[C@H](CC1CCCC1)CN(O)C=O)C(=O)N1CCC(NCc2cc(F)c(F)cc2F)CC1 [IDP-73152] in terms of AUC(0-inf) is 1320

----------
test.protocol: PK study in mice (intravenous and oral)
Assay type: in vivo, male ICR mice
assay.context: male, ICR, mouse, plasma, po, 20 mg/kg, oral 20 mg/kg
value.kind: AUC(0-inf) (ng·h/mL)
// note: answer is a bare numeric in ng·h/mL

The reported value for CC(C)(C)[C@H](NC(=O)[C@H](CC1CCCC1)CN(O)C=O)C(=O)N1CCC(NCc2cc(F)c(F)cc2F)CC1 in terms of AUC(0-inf) is 10900
